assay: qHTS Assay for Enhancers of SMN2 Splice Variant Expression; conditions: HEK293 SMN2-luciferase splicing reporter, luminescence, 30-36 h; series mostly up to 46.1 µM; further: nearly all actives have a fitted effect of over 55% in size
About 5,900 (2.8%) of roughly 210,000 compounds were called active. Roughly 5% stayed inconclusive and do not appear here. The call rests on the fitted dose curve; in most records, active means well fitted activation curve with a large enough effect; inconclusive means small, poorly fitted or top-dose-only effect; inactive means no such curve, though single readings can be large or run the other way. This is one part of a sample in which actives are shown more often than they occur.
Would you mind answering with one of these outcomes? active, inactive

Completed entries (count: 10):
Cc1cccc(NC(=O)CSc2nc3c(oc4ccccc43)c(=O)n2-c2ccc(F)cc2)c1
inactive
CCCOc1ccc(C(=O)NCCc2ccccc2)cc1
active
CCOC(=O)c1ccc(NC(=O)C2CC(=O)NC(=Nc3ccc(C)c(C)c3)S2)cc1 (stereo unspecified)
inactive
CCc1cccc(OC2OC(CO)C(O)C(O)C2NC(C)=O)c1 (stereo unspecified)
inactive
CC(C)c1ccc(C(=O)NCCCc2ccccc2)cc1
active
Cc1ccccc1-c1nc(CS(=O)(=O)CC(=O)Nc2cc(Cl)cc(Cl)c2)c(C)o1
inactive
CC(C)Cn1c(=O)c2ccccc2n2c(CCC(=O)N3CCN(c4cccc(Cl)c4)CC3)nnc12
inactive
COc1ccc(-c2c(C)nn3c(N4CCC(C(=O)NCCC(C)C)CC4)cc(C)nc23)cc1OC
inactive
O=c1ccn([C@@H]2O[C@H](COP(=O)(O)OP(=O)(O)OP(=O)(O)O)[C@@H](O)[C@H]2O)c(=O)[nH]1
inactive
COc1ccc(/C=N/S(=O)(=O)c2ccccc2)cc1OC
inactive

Please let me know the test result on file for S=C(NCc1ccco1)Nc1ccc2c(c1)OCCO2 .
active

Could you please tell me the result logged for O=C(Nc1cc(C(F)(F)F)ccc1Cl)c1ccc2c(c1)CCN2S(=O)(=O)c1ccccc1 in this assay?
inactive

Please let me know the test result on file for O=C(NCCOc1ccccc1)c1ccccc1 .
active

====

test: qHTS Assay for Enhancers of SMN2 Splice Variant Expression; details: HEK293 SMN2-luciferase splicing reporter, luminescence, 30-36 h; series mostly up to 46.1 µM; further: nearly all actives have a fitted effect of over 55% in size; further: potency means the concentration at half of the fitted maximal effect
The whole screen tested about 210,000 compounds, of which about 5,900 (2.8%) were called active. About 5% were inconclusive and are not listed. The full list was thinned out, with actives kept by preference.
Observed property: Potency

Cc1nc(NC(=O)C2CCCCC2)sc1C
20 µM (active)
COc1ccc(/C=N\NC(=O)c2sc(N)nc2C)cc1OC
inactive
S=C(c1ccc(-c2ccccc2)o1)N1CCCCC1
12.6 µM (active)
CC(=O)c1sc(N/N=C\c2ccc(C)cc2)nc1C
10 µM (active)

Each of the following entries comes with a recorded value; kindly state Potency for each.
1. Cc1ccc(S(=O)(=O)Nc2nc(C)cc(N/N=C/c3ccc(O)cc3)n2)cc1
2. Cc1ccc(S(=O)(=O)N(NC2=NS(=O)(=O)c3ccccc32)C(=O)c2ccccc2)cc1
3. COc1ccc(/C=C2\NC(=O)[C@@H]3Cc4ccccc4CN3C2=O)cc1

["inactive", "inactive", "inactive"]

Provide Potency for all items below, preserving their order.
1. O=C(Nc1cccc(NC(=O)c2ccc(Br)cc2)c1)c1ccccc1
2. Cc1nnc(C)n1/N=C/c1ccc(C(C)C)cc1
3. CCCN1CN=C(NS(=O)(=O)c2ccc(NC(C)=O)cc2)NC1
4. CCSc1nnc(NC(=O)c2ccc(C)cc2)s1
5. Cc1ccc(-c2ccc(CCC(=O)O)n2-c2ccc(C(N)=O)cc2)cc1
6. CCOC(=O)c1c(N)nn(C(=O)c2ccccc2)c1-c1ccccc1

1: inactive; 2: inactive; 3: inactive; 4: 14.1 µM (active); 5: inactive; 6: inactive

Give Potency for each of the items listed below.
1. Cc1ccc(NC(=O)Nc2sc3nc4n(c(=O)c3c2C)CCC(C)CC4)c(Cl)c1 (stereo not given)
2. O=C(Nc1cc2ccccc2oc1=O)C1CCCCC1

["inactive", "4.47 µM (active)"]

// batch mode: one Potency value per listed entry
1. Cc1cnc(NC(=O)C2CCCC2)s1
2. CCc1ccc(NC(=O)c2sc3nc4c(cc3c2N)CN(CC)CC4)cc1
3. CCc1ccc(CN(Cc2ccco2)C(=O)c2ccccc2Cl)cc1

14.1 µM (active)
inactive
inactive

Working through the 2 compounds below one at a time, give Potency for each.
1. CC(=O)c1sc(N/N=C/c2ccc(C(C)C)cc2)nc1C
2. CCOCCCNC(=O)c1c(NC(=O)Cc2coc3ccc(C)cc23)sc2c1CCC2

17.8 µM (active)
inactive

====

assay: qHTS Assay for Enhancers of SMN2 Splice Variant Expression; conditions: HEK293 SMN2-luciferase splicing reporter, luminescence, 30-36 h; series mostly up to 46.1 µM; further: nearly all actives have a fitted effect of over 55% in size
Out of some 210,000 compounds screened, about 5,900 (2.8%) were called active. Another 5% or so got no clear call; they are omitted. The call rests on the fitted dose curve; in most records, active means well fitted activation curve with a large enough effect; inconclusive means small, poorly fitted or top-dose-only effect; inactive means no such curve, though single readings can be large or run the other way. This is one part of a sample in which actives are shown more often than they occur.
The categories you may choose from are active, inactive

O=C1CC(c2ccc(F)cc2F)c2cc3c(cc2N1)OCO3 (stereo not drawn)
inactive
Cc1cc2n(n1)C(c1cc(C(C)(C)C)c(O)cc1O)Nc1ccccc1-2 (stereo not drawn)
inactive
COc1ccc(-c2nc3c(c(SCC(=O)Nc4ccc(C(=O)O)cc4)n2)Cc2ccccc2O3)cc1
inactive
CCOc1ccc2nc(C(=O)N3CCCC(C)C3)sc2c1 (stereo not drawn)
active
CCOC(=O)c1c(NC(=O)/C(C#N)=C/c2ccccc2)sc2c1CCC2
inactive

# outcome recorded in this test, key = C=C1O[C@@](CO)(n2cnc3c(N)ncnc32)[C@H](O)[C@@H]1O
inactive

What is the recorded call for this compound in the test? Cc1cccc(NC(=O)/C=C/c2ccc3c(c2)OCO3)n1
active

Could you kindly confirm the outcome this assay logged for COc1ccc(Cl)cc1NC(=O)Cn1c(=O)c2ccccc2n2nncc12 ?
inactive

# outcome recorded in this test, key = CCNc1nc(-c2cc3ccccc3o2)cs1
active

Hi, do you know how O=C(NCC12CC3CC(CC(C3)C1)C2)c1cc2nc(-c3ccccc3)cc(C(F)(F)F)n2n1 came out in this test?
inactive

What classification did Cc1cc2oc(C(=O)N(Cc3ccc(Cl)cc3)Cc3ccco3)c(C)c2cc1Cl end up with in this test?
inactive

I'd appreciate the recorded outcome for CC(C)Cn1c(C2CC(=O)N(c3ccccc3Cl)C2)nc2ccccc21 (stereo not drawn) from this test.
inactive

I'd appreciate the recorded outcome for O=C(CCCCn1c(=O)c2ccccc2n(CC(=O)Nc2cccc(C(F)(F)F)c2)c1=O)NCc1ccc2c(c1)OCO2 from this test.
inactive

Lab log entry: CCCCNC(=O)c1ccc2c(c1)NC(=O)C(C(C)C)N2 (stereo not drawn) — outcome as called in the assay?
inactive

Could you check what this test reported for O=C(NCC1CCC(C(=O)O)CC1)OCc1ccccc1 (stereo not drawn) ?
inactive

Identify the outcome logged in this assay for the compound shown: CCOc1ccc2nc(N3CCC(C(=O)Nc4cc(C)ccc4C)CC3)sc2c1
inactive

Would you mind telling me which call this test gave Cc1ccc(C)c(Cn2c(C(=O)O)c(CNCc3cccs3)c3ccccc32)c1 ?
inactive

Any idea what this test logged for COc1ccc(CCNC(=O)CCc2c(C)nc3c(c(C)nn3-c3ccc(C)c(C)c3)c2C)c(OC)c1OC ?
inactive

Could you please tell me the result logged for CCOc1ccc2nc(N3CCCC(C(=O)Nc4cc(C)ccc4C)C3)sc2c1 (stereo not drawn) in this assay?
active

Hi team, can someone confirm the assay call for COc1ccc(NC(=O)C2CCN(c3ccc(Sc4ccc(C)cc4)nn3)CC2)c(OC)c1 ?
inactive

Identify the outcome logged in this assay for the compound shown: Cc1cc(C)c(NC(=O)c2cc3sc(Cl)cc3n2C)c(C)c1
inactive

State the result this test recorded for CC(C)c1ccc(C2CC(=O)N3CN(C4CCCCC4)CSC3=C2C#N)cc1 (stereo not drawn) .
inactive

Per the assay record, what outcome was assigned to Cc1nc(C)c(-c2csc(NCCc3ccccc3)n2)s1 ?
inactive

====

assay: qHTS Assay for Enhancers of SMN2 Splice Variant Expression; details: HEK293 SMN2-luciferase splicing reporter, luminescence, 30-36 h; series mostly up to 46.1 µM; further: nearly all actives have a fitted effect of over 55% in size
The whole screen tested about 210,000 compounds, of which about 5,900 (2.8%) were called active. Inconclusive results (about 5%) are left out. Calls come from the whole dose curve; as a rule, active = well fitted activation curve with a large enough effect; inconclusive = small, poorly fitted or top-dose-only effect; inactive = no such curve, though single readings can be large or run the other way. Only a selection was taken, and actives are over-represented in it overall.
Respond only with the outcome that fits, drawn from active, inactive

Observe how each entry below is paired with its result.
COc1ccccc1-c1ccnc2[nH]n(-c3ccccc3)c(=O)c12
inactive
Cc1cccc(CSc2nc3ccncc3n2CC(=O)N(C)C2CCCCC2)c1
inactive
CO[C@@]12[C@@H](COC(N)=O)C3=C(C(=O)C(C)=C(N)C3=O)N1C[C@@H]1N[C@@H]12
inactive
CCCSc1ncc(Cl)c(C(=O)Nc2sc3c(c2C(=O)NCCOC)CCCC3)n1
inactive
CCOC(=O)c1ccc(NC(=O)CC2C(=O)N(c3ccccc3)C(=O)N2Cc2cccs2)cc1 (configuration not stated)
inactive

Outcome? CCOc1ccc(Nc2oc(/C=C/c3ccc(F)cc3)nc2C#N)cc1
inactive

For COc1ccc2oc(-c3cccc(NC(=O)CSc4ccc(Cl)cc4)c3)nc2c1 , which call appears in the assay record?
active

Please let me know the test result on file for COc1ccc(-c2csc(-c3cccs3)n2)cc1OC .
active

Please state the recorded outcome for this molecule: CCOc1ccc(CNC(=O)C2CCN(c3nnc(-n4cccc4CNc4ccc(C)cc4)s3)CC2)cc1OC
inactive

Record lookup: outcome of this test for Cc1ccc2nc(-c3ccc(NC(=O)CN(C)S(=O)(=O)c4ccccc4)cc3)sc2c1 ?
active

Recorded test call requested for CCCN1CCN(CCCNC(=O)CN2C(=O)COc3ccccc32)CC1
inactive

Please let me know the test result on file for CCc1ccc(NC(=O)N2CCN(c3ccccc3)CC2)cc1 .
inactive

// outcome(item) with item = COc1ccccc1CNC(=O)c1cc(=O)c2ccccc2o1
inactive

Just curious, what result did COc1ccc(N2CCN(Cc3nc4c(c(=O)[nH]c(=O)n4C)n3Cc3ccc(Cl)cc3)CC2)cc1 get here?
inactive

Test call for this molecule, please: c1cnn(-c2cc(N3CCOCC3)ncn2)c1
inactive

Dear colleague, could you share the recorded outcome for CCCCCn1c(CCNC(=O)c2ccc(F)cc2)nc2ccccc21 when you have a moment?
inactive

Would you mind telling me which call this test gave CSc1ncccc1C(=O)Nc1nc2ccc(F)cc2s1 ?
inactive

Outcome? COc1cc2ccccc2cc1C(=O)Nc1cccc(-c2nc3ccccc3o2)c1
inactive

// param item: O=C(CSc1nnc2ccccn12)c1ccccc1 ; yields the recorded call
active

Hey, what did the test say about Cn1c(CC(=O)Nc2ccccc2)nnc1SCC(=O)c1ccccc1 ?
inactive

What outcome does the record of this test show for COc1cccc(C(=O)Nc2ccc3oc(-c4ccc5ccccc5c4)nc3c2)c1 ?
inactive

Given CCOC(=O)C1=C(c2ccccc2)Nc2ncnn2C1c1ccc(Cl)cc1 (configuration not stated) , state the outcome it received in this test.
inactive
